These measurements were taken from patent US12065447B2.

# METHOD: Study on oral pharmacokinetics in rats
# Type: in vivo
# CONDITION DESCRIPTION: rat, plasma, male SD rats, 3 mg/kg by gavage, average, read-out: Peak plasma concentration Cmax
# Protocol: Study on Oral Pharmacokinetics in Rats • 1. […] The pharmacokinetic behaviors of the compounds of the present invention in rats were studied, and the pharmacokinetic properties of the compounds were evaluated. • 2. The test animals are healthy adult male SD rats, 3 in each group. • 3. […] Liquid chromatography tandem mass spectrometry (LC-MS/MS) was used to determine the plasma concentration of test compounds in rat after intragastrical administration of different compounds.

COMPOUND | Cmax
CN1C(=O)[C@@H](NC(=O)c2n[nH]c(Cc3ccccc3)n2)COc2ccc(C#Cc3ccncc3)cc21 [ZB-R-52] | 755 ng/mL
CN1C(=O)[C@@H](NC(=O)c2n[nH]c(Cc3ccccc3)n2)COc2ccc(C#Cc3ccccn3)cc21 [ZB-R-50] | 1450 ng/mL
CN1C(=O)[C@@H](NC(=O)c2n[nH]c(Cc3ccccc3)n2)COc2ccc(C#Cc3cccnc3)cc21 [ZB-R-51] | 1360 ng/mL

---

# METHOD: Study on oral pharmacokinetics in rats
# Assay type: in vivo
# CONDITION DESCRIPTION: rat, plasma, male SD rats, 3 mg/kg by gavage, average, extrapolated to infinity, read-out: AUCINF_obs
# Experimental: Study on Oral Pharmacokinetics in Rats • 1. […] The pharmacokinetic behaviors of the compounds of the present invention in rats were studied, and the pharmacokinetic properties of the compounds were evaluated. • 2. The test animals are healthy adult male SD rats, 3 in each group. • 3. […] Liquid chromatography tandem mass spectrometry (LC-MS/MS) was used to determine the plasma concentration of test compounds in rat after intragastrical administration of different compounds.
QUANTITY MEASURED: AUC(0-inf)

MOL SMILES | QUANTITY MEASURED | MEASURED VALUE
Cc1c(C#Cc2cnn(C)c2)sc2c1SC[C@H](NC(=O)c1nnc(Cc3ccccc3)[nH]1)C(=O)N2C | AUC(0-inf) | 1700 ng·h/mL
CN1C(=O)[C@@H](NC(=O)c2n[nH]c(Cc3ccccc3)n2)COc2ccc(C#Cc3cccnc3)cc21 | AUC(0-inf) | 4290 ng·h/mL
CN1C(=O)[C@@H](NC(=O)c2n[nH]c(Cc3ccccc3)n2)COc2ccc(C#CC3CC3)cc21 | AUC(0-inf) | 26100 ng·h/mL
CN1C(=O)[C@@H](NC(=O)c2n[nH]c(Cc3ccccc3)n2)COc2ccc(C#Cc3cnn(C)c3)cc21 | AUC(0-inf) | 4650 ng·h/mL
CN1C(=O)[C@@H](NC(=O)c2n[nH]c(Cc3ccccc3)n2)COc2ccc(C#Cc3ccccn3)cc21 | AUC(0-inf) | 3120 ng·h/mL
CN1C(=O)[C@@H](NC(=O)c2n[nH]c(Cc3ccccc3)n2)COc2ccc(C#Cc3ccncc3)cc21 | AUC(0-inf) | 1560 ng·h/mL
CN1C(=O)[C@@H](NC(=O)c2n[nH]c(Cc3ccccc3)n2)COc2ccc(C#CC3CCOCC3)cc21 | AUC(0-inf) | 1250 ng·h/mL

---

Each item that follows carries a reported half-life.
# METHOD: Study on oral pharmacokinetics in rats
# Format: in vivo
# CONDITION DESCRIPTION: rat, plasma, male SD rats, 3 mg/kg by gavage, average, read-out: Half life T1/2 (converted)

MOL SMILES | half-life
CN1C(=O)[C@@H](NC(=O)c2n[nH]c(Cc3ccccc3)n2)COc2ccc(C#Cc3ccncc3)cc21 | 0.81 h
CN1C(=O)[C@@H](NC(=O)c2n[nH]c(Cc3ccccc3)n2)COc2ccc(C#Cc3ccccn3)cc21 | 1.56 h
CN1C(=O)[C@@H](NC(=O)c2n[nH]c(Cc3ccccc3)n2)COc2ccc(C#CC3CCOCC3)cc21 | 1.14 h
CN1C(=O)[C@@H](NC(=O)c2n[nH]c(Cc3ccccc3)n2)COc2ccc(C#Cc3cnn(C)c3)cc21 | 1.54 h
CN1C(=O)[C@@H](NC(=O)c2n[nH]c(Cc3ccccc3)n2)COc2ccc(C#Cc3cccnc3)cc21 | 1.79 h
CN1C(=O)[C@@H](NC(=O)c2n[nH]c(Cc3ccccc3)n2)COc2ccc(C#CC3CC3)cc21 | 3.71 h
Cc1c(C#Cc2cnn(C)c2)sc2c1SC[C@H](NC(=O)c1nnc(Cc3ccccc3)[nH]1)C(=O)N2C | 3.46 h
